tested on: SF-268 CNS; assay: NCI-60 one-dose screen, 48 h; conditions: 10 µM unless noted
Compounds without any hit were thinned out: in the full panel of roughly 83,000, 20% have a hit. The source made the active and inactive calls. Rule for the calls: active = growth percent below 10; inactive = the rest.
Result category, one only: True (active), False (inactive)

Observe how each entry below is paired with its result.
# compound, assigned_class
records = [
    ("Cc1ccc(Nc2nccc(N(C)c3ccc4c(C)n(C)nc4c3)n2)cc1S(N)(=O)=O", "False"),
    ("CC1(O)CCC2CC3OC3(C)CCC3OC3(C)C(O)CC1C2(C)C (stereo unspecified)", "False"),
    ("CCN(CCCOc1ccc2c(Nc3cc(CC(=O)Nc4cccc(F)c4)[nH]n3)ncnc2c1)CCOP(=O)(O)O", "False"),
    ("Cc1cc(-c2cc(OC(=O)c3ccccc3)ccc2Cl)cc2nnc(Nc3ccc(OCCN4CCCC4)cc3)nc12", "False"),
    ("COCCN1CCN(Cc2ccc(-c3n[nH]c4c3C(=O)c3c(NC(=O)NN5CCOCC5)cccc3-4)cc2)CC1", "True"),
]

Asked: // param item: COc1ccc(C2CC(=O)c3c(O)c(OC)c(OC)c(OC)c3O2)cc1O (stereo unspecified) ; yields the recorded call
Given back: False

Asked: // param item: "CCNC(=O)C#Cc1ccc2c(C(=Nc3ccc(CN(C)C)cc3)c3ccccc3)c(O)[nH]c2c1" ; yields the recorded call
Given back: False

Asked: // param item: "C[C@@H]1COCCN1c1cc(C2([S@](C)(=N)=O)CC2)nc(-c2ccnc3[nH]ccc23)n1" ; yields the recorded call
Given back: False

Asked: // param item: "O=C(CNc1nc(-c2ccc(Cl)cc2)cs1)Nc1ccc(-c2nc3ccccc3s2)cc1" ; yields the recorded call
Given back: False
